- experiment_notes: BSK_SAg_PBMCCytotoxicity: PBMC Cytotoxicity Assessment in the BioMAP Diversity Plus: SAg Assay (AID 2283093);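 also: PBMC viability measured as Alamar Blue reduction fluorescence at 546/580 nm; fitted both ways against DMSO so a hit may be loss or gain of signal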
- condition_details: primary human HUVEC with PBMC
Active and inactive are the calls of the source. The calls were made as follows: active = hit-call score of the fitted dose curve at least 0.9, where 1 is the maximum; inactive = score below 0.9.
Choose one outcome from this list and give only that: active, inactive

CCC(C)(C)c1ccc(O)c(C(C)(C)CC)c1	active
NC(=O)O	inactive
CCCCC(CC)CO[N+](=O)[O-] (stereo not drawn)	inactive
O=C(O)C(Cl)(Cl)Cl	inactive
O=C1C2(Cl)C3(Cl)C4(Cl)C(Cl)(Cl)C5(Cl)C3(Cl)C1(Cl)C5(Cl)C24Cl (stereo not drawn)	active
CC(C)(C)CC(C)(C)c1ccc(O)cc1	active

For "O=C(OC1CCCCC1)c1ccccc1C(=O)OC1CCCCC1" , which call appears in the assay record?
active

What do you have for "O=c1[nH]c(=O)[nH]c(=O)[nH]1" ?
inactive
